FYI, the data here is from the supplement of paper PMC10567573.

B1: KRT13 (parent)
chain: TPGIDLTRVLAEMREQYEAMAERN

variants of: B1; assay: protein stability index of a GFP-peptide fusion (GPS, HEK-293T) (PSI 1-6); higher = more stable; conditions: c terminus: a fixed tail appended;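 note: lentivirally expressed fusions sorted by FACS into six bins by GFP to DsRed ratio, PSI derived from sequencing read proportions per bin multiplied by bin number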
Each item that follows carries a reported protein stability index.

{"seq": "TPGIDLTRVLAEMRMQYEAMAERN", "protein stability index": 2.91}
{"seq": "TPGIDLTRVLSEMREQYEAMAERN", "protein stability index": 4.61}
{"seq": "THGIDLTRVLAEMREQYEAMAERN", "protein stability index": 4.41}
{"seq": "TPGIDETRVLAEMREQYEAMAERN", "protein stability index": 4.69}
{"seq": "TPGIDLTRVLAEMRENYEAMAERN", "protein stability index": 3.8}
{"seq": "TPGIDLTRVLQEMREQYEAMAERN", "protein stability index": 2.85}
{"seq": "TPGIDLTRVSAEMREQYEAMAERN", "protein stability index": 4.87}
{"seq": "TPGIDLTRVLAEMREQYEACAERN", "protein stability index": 4.1}
{"seq": "TPGIDLTRVLAEMRWQYEAMAERN", "protein stability index": 2.07}
{"seq": "TPGIDLTRVLAEMREQYAAMAERN", "protein stability index": 4.23}
{"seq": "TPGIDLTRVLAEMREQYEKMAERN", "protein stability index": 3.53}
{"seq": "TPGIDLTRVLAEMREQNEAMAERN", "protein stability index": 4.56}
{"seq": "TPGIDLTRVLAEMREQGEAMAERN", "protein stability index": 6}
{"seq": "TNGIDLTRVLAEMREQYEAMAERN", "protein stability index": 4.05}
{"seq": "TPGIMLTRVLAEMREQYEAMAERN", "protein stability index": 3.81}
{"seq": "TPGIDLTRVLAEMREQYEAGAERN", "protein stability index": 4.22}
{"seq": "GPGIDLTRVLAEMREQYEAMAERN", "protein stability index": 4.59}
{"seq": "TPGIDLTRVLAEMREQYEAMASRN", "protein stability index": 3.52}
{"seq": "TPGIDLTRVLAAMREQYEAMAERN", "protein stability index": 3.15}
{"seq": "TPGIDLTRVLAEMREQYEFMAERN", "protein stability index": 4.13}
{"seq": "TPGIFLTRVLAEMREQYEAMAERN", "protein stability index": 2.19}
{"seq": "TPGIDLTMVLAEMREQYEAMAERN", "protein stability index": 4.01}
{"seq": "TPGIDLTRVLAEMREQREAMAERN", "protein stability index": 4.75}
{"seq": "TPGIDLTRVLAEMREQYCAMAERN", "protein stability index": 2.93}
{"seq": "TPGIDLTRVLAEMREQYEIMAERN", "protein stability index": 3.73}
{"seq": "TPGIDLTRVLAEMREQYRAMAERN", "protein stability index": 3.47}
{"seq": "TPGIDLTRVLAEMREQYEAMAEEN", "protein stability index": 4.9}
